Target: chST6GalNAc-I (Gallus gallus, UniProt Q92183)
Construct: made in house; host or cells: insect cells
Sequence (Q92183 whole entry): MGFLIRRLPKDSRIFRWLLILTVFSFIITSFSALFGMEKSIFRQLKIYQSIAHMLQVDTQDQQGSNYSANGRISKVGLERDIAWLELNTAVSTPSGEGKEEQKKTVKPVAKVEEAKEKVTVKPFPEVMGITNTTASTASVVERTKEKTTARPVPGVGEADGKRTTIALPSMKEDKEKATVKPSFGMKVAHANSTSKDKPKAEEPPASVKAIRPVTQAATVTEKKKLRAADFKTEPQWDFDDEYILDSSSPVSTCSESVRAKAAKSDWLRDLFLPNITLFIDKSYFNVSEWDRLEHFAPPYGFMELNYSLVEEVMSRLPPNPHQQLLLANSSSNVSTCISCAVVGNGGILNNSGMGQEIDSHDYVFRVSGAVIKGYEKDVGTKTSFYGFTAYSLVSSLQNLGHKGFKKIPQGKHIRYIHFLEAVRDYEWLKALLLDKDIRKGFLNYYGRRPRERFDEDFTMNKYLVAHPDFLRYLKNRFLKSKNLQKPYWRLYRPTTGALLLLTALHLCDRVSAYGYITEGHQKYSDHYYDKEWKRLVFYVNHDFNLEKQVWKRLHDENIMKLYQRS
Test: chST6GalNAc-I activity on small acceptor molecules
Format: biochemical, chicken
Conditions: α-D-galacto derivatives as acceptors
OBSERVED_PROPERTY: chST6GalNAc-I activity, nmol/mg × min^−1 (nmol/mg × min^−1)
Value expressed in nmol/mg × min^−1; do not type the unit.

Worked set:
O=[N+]([O-])c1ccc(O[C@@H]2OC(CO)[C@@H](O[C@@H]3OC(CO)[C@H](O)[C@H](O)C3O)[C@H](O)C2O)cc1 (stereo partly shown) ... 1.30
OCC1O[C@@H](O)C(O)[C@@H](O)[C@@H]1O[C@@H]1OC(CO)[C@H](O)[C@H](O)C1O (stereo partly shown) ... 2.90

Next item in the queue.
Request: Entry CC(=O)N[C@H]1C(O)O[C@H](CO)[C@H](O)[C@@H]1O (stereo partly drawn) [D-GalNAc, reference compound] has what chST6GalNAc-I activity, nmol/mg × min^−1?
Response: 0.00
